- testSummary: Aqueous stability of the compound assessed as compound remaining at pH 2 measured at 24 hrs by UPLC analysis
- Assay type: physicochemical
- conditionSummary: aqueous solution, read-out: Stability
valueKind: remaining at 24 h

CC(C)C(=O)OC[C@H]1O[C@@](C#N)(c2ccc3c(N)ncnn23)[C@H](OC(=O)C(C)C)[C@@H]1OC(=O)C(C)C : ≥ 96%

Reported remaining at 24 h for CC(C)C(=O)OC[C@H]1O[C@@](C#N)(c2ccc3c(N)ncnn23)[C@H](O)[C@@H]1O : what is it? ≥ 94%

What about CC(=O)OC[C@H]1O[C@@](C#N)(c2ccc3c(N)ncnn23)[C@H](OC(C)=O)[C@@H]1OC(C)=O ? 82%

What do we get for CC(=O)OC[C@H]1O[C@@](C#N)(c2ccc3c(N)ncnn23)[C@H](O)[C@@H]1O ? 89%

----------
Measured half-life at […], listed per entry for reference.
- testSummary: Stability of compound in dog liver S9 fraction assessed as half life at pH 7.4 measured upto 90 mins by LC-MS/MS analysis
- Format: ADME, subcellular, Canis lupus familiaris
Numeric only. Scale: min

CC(=O)OC[C@H]1O[C@@](C#N)(c2ccc3c(N)ncnn23)[C@H](O)[C@@H]1O : 25

Now consider a different compound.
Data request, read-out half-life at […], for CC(C)C(=O)OC[C@H]1O[C@@](C#N)(c2ccc3c(N)ncnn23)[C@H](O)[C@@H]1O 4.3

----------
- testSummary: Stability of compound in human plasma assessed as half life measured upto 4 hrs by LC-MS/MS analysis
- Format: ADME, cell-free
valueKind: half-life (min)
Give the value in min but do not write min after it.

CC(=O)OC[C@H]1O[C@@](C#N)(c2ccc3c(N)ncnn23)[C@H](O)[C@@H]1O : 70

Value lookup for half-life; key = CC(C)C(=O)OC[C@H]1O[C@@](C#N)(c2ccc3c(N)ncnn23)[C@H](O)[C@@H]1O 29

Then what about the molecule CC(C)C(=O)OC[C@H]1O[C@@](C#N)(c2ccc3c(N)ncnn23)[C@H](OC(=O)C(C)C)[C@@H]1OC(=O)C(C)C ? 5.5

Now the same for CC(=O)OC[C@H]1O[C@@](C#N)(c2ccc3c(N)ncnn23)[C@H](OC(C)=O)[C@@H]1OC(C)=O 4.7

----------
- Test system: MRC5
- testSummary: Cytotoxicity against human MRC5 cells assessed as reduction in cell growth measured after 5 days by CellTiter-Glo assay
- Type: toxicity, cell-based
- conditionSummary: mrc5, 120 h, time 5 day
Reported CC50 is given for each of the following compounds.

For orientation, consider the following solved cases.
CC(C)C(=O)OC[C@H]1O[C@@](C#N)(c2ccc3c(N)ncnn23)[C@H](O)[C@@H]1O : > 44 µM
N#C[C@@]1(c2ccc3c(N)ncnn23)O[C@H](CO)[C@@H](O)[C@H]1O : > 89 µM

Shift focus to the following entry.
I have this compound here, COc1ccc(C[C@H](N)C(=O)N[C@H]2[C@@H](O)[C@H](n3cnc4c(N(C)C)ncnc43)O[C@@H]2CO)cc1 , and I need its recorded CC50. 0.32 µM

----------
The reader will find reported solubility thermodynamic at 24 h values listed item by item below.
- testSummary: Thermodynamic aqueous solubility at pH 7 measured at 24 hrs by UPLC analysis
- Format: physicochemical
- conditionSummary: aqueous solution, read-out: Therm_solubility

N#C[C@@]1(c2ccc3c(N)ncnn23)O[C@H](CO)[C@@H](O)[C@H]1O : ≤ 70 µg/mL
CC(C)C(=O)OC[C@H]1O[C@@](C#N)(c2ccc3c(N)ncnn23)[C@H](O)[C@@H]1O : ≥ 1000 µg/mL

Okay, next one:
# get_value(readout='solubility thermodynamic at 24 h', item= CC(C)C(=O)OC[C@H]1O[C@@](C#N)(c2ccc3c(N)ncnn23)[C@H](OC(=O)C(C)C)[C@@H]1OC(=O)C(C)C ) < 10 µg/mL
